System: NCI-H322M multicellular tumor spheroids, viability (% test/control)
Assay: Anticancer human tumor NCI-H322M cell line growth inhibition;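 note: spheroids exposed to compound for seven days before readout; 100% = DMSO vehicle control wells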
Conditions: second compound 0.000949 µM; first compound 3 µM; hits give low values
Readout Name: viability, T/C (%)
Numbers only, in %.

Example cases with answers are listed next.
[[record]]
compound = "O=C(c1cc(Cc2n[nH]c(=O)c3ccccc23)ccc1F)N1CCN(C(=O)C2CC2)CC1 + COc1cc2c(cc1O)CCNC21CSC2c3c(OC(C)=O)c(C)c4c(c3C(COC1=O)N1C(O)C3Cc5cc(C)c(OC)c(O)c5C(C21)N3C)OCO4"
target_or_test_system = "NCI-H322M multicellular tumor spheroids, viability (% test/control)"
measured_number = 72.7

[[record]]
compound = "Cn1ncnc1[C@H]1c2n[nH]c(=O)c3cc(F)cc(c23)N[C@@H]1c1ccc(F)cc1 + COc1cc2c(cc1O)CCNC21CSC2c3c(OC(C)=O)c(C)c4c(c3C(COC1=O)N1C(O)C3Cc5cc(C)c(OC)c(O)c5C(C21)N3C)OCO4"
target_or_test_system = "NCI-H322M multicellular tumor spheroids, viability (% test/control)"
measured_number = 40.3

[[record]]
compound = "CNCc1ccc(-c2cc(-c3nc(-c4ccc(S(=O)(=O)C(C)C)cc4)cnc3N)on2)cc1 + COc1cc2c(cc1O)CCNC21CSC2c3c(OC(C)=O)c(C)c4c(c3C(COC1=O)N1C(O)C3Cc5cc(C)c(OC)c(O)c5C(C21)N3C)OCO4"
target_or_test_system = "NCI-H322M multicellular tumor spheroids, viability (% test/control)"
measured_number = 44.4


Q) Look at this compound and give its reported viability, T/C. Cc1sc2c(c1C)C(c1ccc(Cl)cc1)=NC(CC(=O)Nc1ccc(O)cc1)c1nnc(C)n1-2 (centres undefined) + COc1cc2c(cc1O)CCNC21CSC2c3c(OC(C)=O)c(C)c4c(c3C(COC1=O)N1C(O)C3Cc5cc(C)c(OC)c(O)c5C(C21)N3C)OCO4
A) 11.9

* * *

Tested on: NCI-H322M multicellular tumor spheroids, viability (% test/control)
Test: Anticancer human tumor NCI-H322M cell line growth inhibition;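 note: spheroids exposed to compound for seven days before readout; 100% = DMSO vehicle control wells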
Conditions: second compound 0.00949 µM; first compound 0.0316 µM; hits give low values
viability, T/C vs 80%: less than gives YES; not less than gives NO.

Check out these entries, answers already filled in.
[[record]]
compound = "CC1COCCN1c1cc(-c2ccnn2C)c2ccnc(-c3ccn[nH]3)c2n1 (stereo unspecified) + CC[C@@]1(O)C(=O)OCc2c1cc1n(c2=O)Cc2cc3c(CN(C)C)c(O)ccc3nc2-1"
class_assignment = "YES"

[[record]]
compound = "Cc1cc(C)c(CNC(=O)c2cc(-c3ccc(CN4CCOCC4)cc3)cc3c2cnn3C2CCCC2)c(=O)[nH]1 + CC[C@@]1(O)C(=O)OCc2c1cc1n(c2=O)Cc2cc3c(CN(C)C)c(O)ccc3nc2-1"
class_assignment = "YES"

[[record]]
compound = "COc1cc(C)[nH]c(=O)c1CN1CCc2c(Cl)cc(C(OC)C3COC3)c(Cl)c2C1=O (stereo unspecified) + CC[C@@]1(O)C(=O)OCc2c1cc1n(c2=O)Cc2cc3c(CN(C)C)c(O)ccc3nc2-1"
class_assignment = "NO"

[[record]]
compound = "[2H]c1nc(C)nc([2H])c1-c1cc(NC[C@@H](C)c2cccc3c(C(=O)NC)ccnc23)ncn1 + CC[C@@]1(O)C(=O)OCc2c1cc1n(c2=O)Cc2cc3c(CN(C)C)c(O)ccc3nc2-1"
class_assignment = "NO"


Q) Criterion: viability, T/C strictly below 80%. Is it met by CC(C)n1c(=O)n(C)c2cnc3cc(F)c(-c4ccc(OCCCN5CCCCC5)nc4)cc3c21 + CC[C@@]1(O)C(=O)OCc2c1cc1n(c2=O)Cc2cc3c(CN(C)C)c(O)ccc3nc2-1 ?
A) YES

* * *

Tested on: NCI-H322M multicellular tumor spheroids, viability (% test/control)
Test: Anticancer human tumor NCI-H322M cell line growth inhibition;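 note: spheroids exposed to compound for seven days before readout; 100% = DMSO vehicle control wells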
Conditions: second compound 30 pM; first compound 0.1 µM; hits give low values
I'd be grateful if you could share measured viability, T/C for these entries.
Give bare numbers, in %.

[[record]]
compound = "COc1ccc([C@@H](O)c2cc(-c3ncnc4cc(N5CCOCC5)ccc34)c(F)cc2Cl)nn1 + COc1cc2c(cc1O)CCNC21CSC2c3c(OC(C)=O)c(C)c4c(c3C(COC1=O)N1C(O)C3Cc5cc(C)c(OC)c(O)c5C(C21)N3C)OCO4"
readout_name = "viability, T/C"
measured_number = 75.9


For every item in the list below, what is its measured viability, T/C?
1. CC1COCCN1c1cc(-c2ccnn2C)c2ccnc(-c3ccn[nH]3)c2n1 (stereo unspecified) + COc1cc2c(cc1O)CCNC21CSC2c3c(OC(C)=O)c(C)c4c(c3C(COC1=O)N1C(O)C3Cc5cc(C)c(OC)c(O)c5C(C21)N3C)OCO4
2. Cc1cc(C)c(CNC(=O)c2cc(-c3ccc(CN4CCOCC4)cc3)cc3c2cnn3C2CCCC2)c(=O)[nH]1 + COc1cc2c(cc1O)CCNC21CSC2c3c(OC(C)=O)c(C)c4c(c3C(COC1=O)N1C(O)C3Cc5cc(C)c(OC)c(O)c5C(C21)N3C)OCO4
3. COc1cc(C)[nH]c(=O)c1CN1CCc2c(Cl)cc(C(OC)C3COC3)c(Cl)c2C1=O (stereo unspecified) + COc1cc2c(cc1O)CCNC21CSC2c3c(OC(C)=O)c(C)c4c(c3C(COC1=O)N1C(O)C3Cc5cc(C)c(OC)c(O)c5C(C21)N3C)OCO4

A)
1. 34.8
2. 97.8
3. 82.3

# return viability, T/C for each item in the list
1. CC(C)n1c(=O)n(C)c2cnc3cc(F)c(-c4ccc(OCCCN5CCCCC5)nc4)cc3c21 + COc1cc2c(cc1O)CCNC21CSC2c3c(OC(C)=O)c(C)c4c(c3C(COC1=O)N1C(O)C3Cc5cc(C)c(OC)c(O)c5C(C21)N3C)OCO4
2. [2H]c1nc(C)nc([2H])c1-c1cc(NC[C@@H](C)c2cccc3c(C(=O)NC)ccnc23)ncn1 + COc1cc2c(cc1O)CCNC21CSC2c3c(OC(C)=O)c(C)c4c(c3C(COC1=O)N1C(O)C3Cc5cc(C)c(OC)c(O)c5C(C21)N3C)OCO4

A)
[73.8, 89.1]
